Would you mind telling me the reported CC50 at 48 h of each entry?
protocol details: Toxicity (cell number) in Calu3 cells in the SARS-CoV-2 assay
Type: cell-based
condition label: human, Calu3 (ATCC, HTB-55) cells infected with SARS-CoV-2, 48 h post-infection

O=C1N[C@H]2[C@H](O)[C@H](O)[C@@H](O)C[C@@H]2c2cc3c(cc21)OCO3 [Compound 2b, trans-dihydrolycoricidine, reference compound] :: 3480 nM

May I ask what CC50 at 48 h has been recorded for O=C1N[C@H]2[C@H](O)[C@H](O)[C@@H](O)C[C@@H]2c2cccc(O)c21 ? 1920 nM

----------
Tested on: HSV-1
protocol details: microbe, parasite or virus in culture
Assay type: cell-based
condition label: 9001 and 01SD fourteen-week old organoids, 6000 pfu/organoid, compounds 10 μM, ACV 50 μM, day 3 p.i.
property name: inhibition of HSV-1 infection (EGFP and RFP reporter expression) in brain organoids

O=C1N[C@H]2[C@H](O)[C@H](O)[C@@H](O)C[C@@H]2c2cc(O)ccc21 :: no anti-HSV-1 activity
COc1cccc2c1C(=O)N[C@H]1[C@H](O)[C@H](O)[C@@H](O)C[C@H]21 :: no anti-HSV-1 activity
